Data origin: PubChem BioAssay AID1159506

# PROTOCOL NOTES: Identification of proteins required for the processing of the EWS-FLI1 nascent transcript;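 also: robust z of luciferase light less the median z of siRNAs with the same seed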
# CONDITION DETAILS: TC32 Ewing sarcoma NR0B1-luc vs CMV-luc, 48 h; screened at 20 nM (by protocol)
Whole data set: some 59,000 sequences, median the read-out near -0.00055, cut for the lowest 2% near -2. Many of the other results were omitted from the sample, so the lowest values are more common in it than they were.
REPORTED ENDPOINT: seed-corrected z-score
Numbers only.

Solved cases (5 shown):
1. UCUCUUUCCUCUGCGUGCG against GDF7: -2.92
2. UAGUUGAGAAGGUCGAAGU against SF3B5: -2.5
3. UCUCGUUCAGUUAUCUGCC against HECW2: 0.826
4. GGCUGGUCGUGAUCUUUCC against SPDYE2: 0.846
5. UAUUGUCAAAUGAAGGUGG against TREML1: 0.93

# batch: return seed-corrected z-score for each of the 8 sequences below
1. UCUUGUCUACUAUCACUGC against PRR13
2. UUUCGCAGUUGUAAGACCG against CROCCP3
3. UUCGUUCACGGCUAUGACC against CHL1
4. AUGGGUCUCAUGCUCCUCU against TMEM74B
5. AAGUUUAUAUACACUUUUG against NDUFS6
6. UGACUUGACUCCGAUCUGC against AP2A1
7. UUUGGUGCUUAGUUUGUUC against LOC642262
8. UGUUAAGUAGAAAAUAACC against CD83

1: 1.15; 2: 0.0641; 3: 0.202; 4: -2.13; 5: 0.771; 6: -0.384; 7: -2.38; 8: 0.552

Could I get seed-corrected z-score for every one of these entries?
1. UGGAGGUUAUGAUCAUUCC against OR51B6
2. UUGUAUGAUUUUGCAAUUG against LINC01014
3. AGACGAUCAAGCUCUGGUG against CYB5R4
4. AGAGAAUAAAGAGCUGGAC against TMEM79
5. UAACACUUUCAUUCCUGUC against FAM86B1
6. UUACAUUCUGAGCCCAUCC against HTR7
7. UACCUCUUAAUAAGAUCUG against ATP8A2

1. -2.91
2. -0.168
3. -0.548
4. 0.267
5. -1.15
6. -0.311
7. 0.0625

* * *

# PROTOCOL NOTES: Identification of proteins required for the processing of the EWS-FLI1 nascent transcript;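 also: robust z of luciferase light less the median z of siRNAs with the same seed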
# CONDITION DETAILS: TC32 Ewing sarcoma NR0B1-luc vs CMV-luc, 48 h; screened at 20 nM (by protocol)
The full ranking holds about 59,000 sequences; the median of the read-out is about -0.00055, and the lowest 2% start at about -2. The sample as a whole holds a higher share of the lowest values than the screen did.
REPORTED ENDPOINT: seed-corrected z-score

Would you please look over these solved cases?
1) ACAUCUAUCACAUCUAAGG against ZC3H13: 0.428
2) UUCUUAUAUGUAGUACGGG against ZNF506: -0.657
3) UGAGGCUCCAGUUUCAGGC against SLC3A2: 1.53

# evaluate next
Requested field: seed-corrected z-score. Item: AGCAGCAUCAUUCUCAUGU against LOXL4
0.376

* * *

# PROTOCOL NOTES: Identification of proteins required for the processing of the EWS-FLI1 nascent transcript;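 also: robust z of luciferase light less the median z of siRNAs with the same seed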
# CONDITION DETAILS: TC32 Ewing sarcoma NR0B1-luc vs CMV-luc, 48 h; screened at 20 nM (by protocol)
Over roughly 59,000 sequences, the read-out has its median near -0.00055; the lowest 2% begin near -2. Only a selection was taken, and the lowest values are over-represented in it overall.
Rule: seed-corrected z-score below -0.2 gives 1.0. Equal to or above -0.2 gives 0.0.

Before answering, review these 6 worked examples.
1) UUCGAUCACCAUAUACUCC against KCNA3: 0.0
2) UCAUUUAGCUUUACCACCC against AHCYL1: 0.0
3) UUCCCGUAAACUUUCUCGC against KLF13: 0.0
4) UAUGAGUCCACAAUUGAUC against TMEM19: 1.0
5) UGCGCUUACGCUUCUUACC against HIST1H2BB: 1.0
6) AAAUGAUCUGGUUUCCUUC against OLFML1: 1.0

Please find the next sequence below.
Please determine if AUCGGCAUUAAGAAUGUAG against EIF3L is below -0.2 in terms of seed-corrected z-score.
1.0

* * *

Give seed-corrected z-score for every item shown.
# PROTOCOL NOTES: Identification of proteins required for the processing of the EWS-FLI1 nascent transcript;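 also: robust z of luciferase light less the median z of siRNAs with the same seed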
# CONDITION DETAILS: TC32 Ewing sarcoma NR0B1-luc vs CMV-luc, 48 h; screened at 20 nM (by protocol)
Whole data set: some 59,000 sequences, median the read-out near -0.00055, cut for the lowest 2% near -2. The full list was thinned out, with the lowest values kept by preference.
Give bare numbers.

1. AAAUCUGCACUCUUGGUCA against RGS11: -2.54
2. AAAUAUAUCUCUUGGAUCU against LRRC75A-AS1: 0.788
3. UAGGGCGCAAGGGUAUGUG against SPDYE3: -0.136
4. UGAGGUUAGAGCACUGCAC against CCDC87: -0.47
5. UUGCGUUCAGGAAUAUCCG against MARK3: 0.476

Hi there! I need seed-corrected z-score for each item below, if you can.
1. AUCAGAAUCAGGAUAGGCC against RND2
2. UUAUAAAAUUUGGUGAUGG against CNNM2
3. UUGCCUUCCAAGUUCUUUC against TNP2

1. 0.812
2. -2.17
3. -0.491

* * *

# PROTOCOL NOTES: Identification of proteins required for the processing of the EWS-FLI1 nascent transcript;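 also: robust z of luciferase light less the median z of siRNAs with the same seed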
# CONDITION DETAILS: TC32 Ewing sarcoma NR0B1-luc vs CMV-luc, 48 h; screened at 20 nM (by protocol)
In all, about 59,000 sequences were measured (the read-out: median about -0.00055, lowest 2% from about -2 on). Shown is part of a subset that was picked to be rich in the lowest values.
REPORTED ENDPOINT: seed-corrected z-score

# example entries with known answers
1) UUAAACUCCACGUCGUCAG against SIRPB1: -0.756
2) UCAAUAUCCAGACCUGGUG against SF3A1: -2.88
3) UCAUCUAGAAGAAUAUUCU against SGK494: 0.387
4) UUUCGGAUGAGCACGCAGC against APRT: -0.0241
5) UACGAUGUCACCUAUAUUG against CSMD2: -0.00124

State the recorded seed-corrected z-score for every item in the following list.
1. UCUGCGACAUUCCUCAUAG against XPO1
2. AGCAUUGUAAGUGACGUGC against KCNN2
3. UACGAUCAUUGCACUGUCC against FBN1
4. UCUUCGUAGAUGACAUUCC against ERO1A
5. AUUGAUGUAAUCUCCGUCC against PTPN7
6. UUCACAACAGGGUGGAGCC against FAM110A
7. AUAGUCACAAAUGAAUCCG against PLS3

1: -0.546; 2: -2.24; 3: -0.21; 4: 0.442; 5: -1.34; 6: -0.481; 7: 0.171

* * *

# PROTOCOL NOTES: Identification of proteins required for the processing of the EWS-FLI1 nascent transcript;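 also: robust z of luciferase light less the median z of siRNAs with the same seed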
# CONDITION DETAILS: TC32 Ewing sarcoma NR0B1-luc vs CMV-luc (EWS-FLI1 target promoter against control promoter), 48 h; screened at 20 nM (by protocol)
The full ranking holds about 59,000 sequences; the median of the read-out is about -0.00055, and the lowest 2% start at about -2. The entries come from a sample that favours the lowest values as a whole.
REPORTED ENDPOINT: seed-corrected z-score
One number for each entry.

1) AUAUAGGAUCUUAUUGUGC against B4GAT1: -0.205
2) AAAACGAUCAAAAUCUGUC against RPL14: -2.5
3) UCAGGAUCUGUGGAUACUG against COPB2: -2.55
4) UGUUCUUGAACUGUAGUAC against RNF40: 0.119
5) UAUGAUCGAACUUUUUGAG against RSG1: -2.03
6) UUUGGAAUCCUUUACUUGG against GLE1: 0.251

Each sequence below has a reported value. Please supply its seed-corrected z-score.
1. AAAGUUCUCGAAAUGCUUC against GLOD4
2. UUCAUGUGAACUUACAGUU against UQCRHL
3. UUCAUUAGCACAUAAGCGG against HENMT1
4. UUGUAGAUGCUGAAUGUCC against DNAAF1
5. UUCAGGAUCGCGGUUAUCA against OR4X2
6. UCCAUCGUCAAUGUUAUCC against HNRNPH3
7. AUAGUUCCUUUGACUAUGG against IKZF5
8. UCAGCAACAACGGAUAUCG against PLEKHG7

1: -0.0199; 2: 0.0588; 3: 0.665; 4: 0.337; 5: 0.269; 6: -5.45; 7: -0.306; 8: -0.178
